Data origin, for the record: patent US20260138990A1

# ASSAYED_SYSTEM: mouse CD38 (Mus musculus, UniProt P56528)
# Sequence (P56528 whole entry): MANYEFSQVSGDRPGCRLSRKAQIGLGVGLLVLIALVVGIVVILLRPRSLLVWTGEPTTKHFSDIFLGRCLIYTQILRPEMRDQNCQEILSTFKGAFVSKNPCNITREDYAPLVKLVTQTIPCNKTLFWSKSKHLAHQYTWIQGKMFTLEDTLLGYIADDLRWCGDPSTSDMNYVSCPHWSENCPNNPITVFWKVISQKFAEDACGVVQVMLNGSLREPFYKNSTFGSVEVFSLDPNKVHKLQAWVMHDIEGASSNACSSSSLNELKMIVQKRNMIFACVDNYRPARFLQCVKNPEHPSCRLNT
# ASSAY: NAD+ cyclase activity assay with mouse recombinant CD38 protein (ε-NAD fluorescence)
# REPORTED_CONDITIONS: 0.6 nM mouse CD38, substrate ε-NAD, 30 min preincubation, fluorescence 300/410 nm
TEST_READOUT: IC50

[[record]]
compound = "COCCC(=O)N[C@H]1CC[C@H](NC(=O)c2ccc3c(c2)-c2cncn2CCO3)CC1 [Compound 67A]"
assayed_system = "mouse CD38 (Mus musculus, UniProt P56528)"
result = "1 to 10 nM"

[[record]]
compound = "COCCO[C@H]1CC[C@H](NC(=O)c2cc(Cl)c3c(c2)-c2cncn2CCO3)CC1 [Compound 94A]"
assayed_system = "mouse CD38 (Mus musculus, UniProt P56528)"
result = "< 1 nM"

[[record]]
compound = "O=C(NC1CCC(CC(F)(F)F)CC1)c1cc(Cl)c2c(c1)-c1cncn1CCO2 (stereo not drawn) [Compound 165A]"
assayed_system = "mouse CD38 (Mus musculus, UniProt P56528)"
result = "1 to 10 nM"

[[record]]
compound = "CN(C)c1nc2cc(NC(=O)c3ccc4c(c3)-c3cncn3CCO4)ccc2s1 [Compound 49A]"
assayed_system = "mouse CD38 (Mus musculus, UniProt P56528)"
result = "10 to 100 nM"

[[record]]
compound = "O=C(Nc1cnc(N2CC(F)(F)C2)nc1)c1ccc2c(c1)-c1cncn1CCO2 [Compound 99A]"
assayed_system = "mouse CD38 (Mus musculus, UniProt P56528)"
result = "10 to 100 nM"

[[record]]
compound = "CCCS(=O)(=O)N[C@H]1CC[C@H](NC(=O)c2ccc3c(c2)-c2cncn2CCO3)CC1 [Compound 37A]"
assayed_system = "mouse CD38 (Mus musculus, UniProt P56528)"
result = "1 to 10 nM"

